These entries and their values trace back to ChEMBL document CHEMBL1151748.

The following molecules are shown together with reported IC50 values.
Tested on: NIH3T3
Assay: Antiproliferative activity against mouse NIH3T3 cells after 72 hrs
Details: NIH3T3, 72 h
# unit: µM | format: bare number

# example entries with known answers
{"columns": ["smilesRecord", "unitSymbol", "IC50"],
 "data": [
  ["COc1cc2c3c(-c4cccc(O)c4)c[nH]c(=O)c3n(C)c2cc1OC", "µM", 6.7],
  ["COc1cc2[nH]c3c(=O)[nH]cc(-c4ccc(O)cc4)c3c2cc1OC", "µM", 13.9],
  ["COc1cc2c3c(-c4ccc(O)cc4)c[nH]c(=O)c3n(Cc3ccccc3)c2cc1OC", "µM", 17.7]
]}

*Q* Which IC50 is reported for this molecule? `COc1ccc2c(c1)c1c(-c3ccc(O)cc3)c[nH]c(=O)c1n2C`
*A* 25

*Q* Which IC50 is reported for this molecule? `COc1cc2c3c(-c4ccc(O)cc4)c[nH]c(=O)c3n(C)c2cc1OC`
*A* 7.2

*Q* Which IC50 is reported for this molecule? `COc1cc2c3c(C)c[nH]c(=O)c3n(C)c2cc1OC`
*A* 10.6

*Q* Which IC50 is reported for this molecule? `COc1cc2c3c(-c4ccccc4)c[nH]c(=O)c3n(C)c2cc1OC`
*A* 17.8

---

Test system: NIH3T3
Experiment: Antiproliferative activity against mouse NIH3T3 cells transfected with H-RAS oncogene after 72 hrs
Details: NIH3T3, 72 h
The following compounds are shown together with reported IC50 values.
# unit: µM | format: bare number

# example entries with known answers
{"columns": ["smilesRecord", "recordedMeasurement"],
 "data": [
  ["COc1cc2c3c(-c4ccc(O)cc4)c[nH]c(=O)c3n(C)c2cc1OC", 6.6],
  ["COc1cc2[nH]c3c(=O)[nH]cc(-c4ccc(O)cc4)c3c2cc1OC", 13.5]
]}

*Q* What is its IC50 for NIH3T3? Entry: `COc1cc2c3c(-c4cccc(O)c4)c[nH]c(=O)c3n(C)c2cc1OC`
*A* 6.1

*Q* What is its IC50 for NIH3T3? Entry: `COc1cc2c3c(-c4ccccc4)c[nH]c(=O)c3n(C)c2cc1OC`
*A* 13.8

---

Biological target: Proto-oncogene tyrosine-protein kinase receptor Ret (Homo sapiens)
Sequence (P07949 whole entry): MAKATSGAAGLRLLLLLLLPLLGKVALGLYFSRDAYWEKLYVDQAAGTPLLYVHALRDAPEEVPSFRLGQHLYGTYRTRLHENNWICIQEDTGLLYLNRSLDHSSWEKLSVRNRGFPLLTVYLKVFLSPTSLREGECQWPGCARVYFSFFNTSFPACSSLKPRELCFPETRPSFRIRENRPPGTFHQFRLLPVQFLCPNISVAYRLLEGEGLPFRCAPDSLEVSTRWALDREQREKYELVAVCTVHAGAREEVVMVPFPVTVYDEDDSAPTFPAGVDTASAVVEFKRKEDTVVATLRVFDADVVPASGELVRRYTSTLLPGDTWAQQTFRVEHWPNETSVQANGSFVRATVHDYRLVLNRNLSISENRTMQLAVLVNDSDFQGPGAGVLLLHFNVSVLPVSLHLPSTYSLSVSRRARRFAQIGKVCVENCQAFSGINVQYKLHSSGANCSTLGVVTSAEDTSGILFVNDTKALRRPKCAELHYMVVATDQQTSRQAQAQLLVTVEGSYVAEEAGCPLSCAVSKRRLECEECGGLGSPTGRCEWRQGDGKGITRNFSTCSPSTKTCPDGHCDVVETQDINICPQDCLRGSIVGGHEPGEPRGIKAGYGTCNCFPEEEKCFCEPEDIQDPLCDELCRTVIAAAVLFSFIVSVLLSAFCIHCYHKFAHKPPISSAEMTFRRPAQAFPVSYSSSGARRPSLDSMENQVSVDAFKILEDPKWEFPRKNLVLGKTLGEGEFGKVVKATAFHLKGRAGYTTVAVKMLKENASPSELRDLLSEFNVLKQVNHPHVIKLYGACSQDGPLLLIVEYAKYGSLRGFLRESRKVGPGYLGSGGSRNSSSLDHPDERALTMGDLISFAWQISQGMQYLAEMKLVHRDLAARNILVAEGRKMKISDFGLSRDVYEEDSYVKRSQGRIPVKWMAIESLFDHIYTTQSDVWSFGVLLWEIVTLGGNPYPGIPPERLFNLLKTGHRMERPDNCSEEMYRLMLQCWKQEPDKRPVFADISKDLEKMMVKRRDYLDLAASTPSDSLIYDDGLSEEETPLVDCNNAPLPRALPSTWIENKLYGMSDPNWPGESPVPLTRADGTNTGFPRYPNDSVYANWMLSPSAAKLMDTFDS
Test: Inhibition of recombinant RET active protein by immunoblotting
The following compounds are shown together with reported IC50 values.
# unit: nM | format: bare number

# example entries with known answers
{"columns": ["smilesRecord", "testSystem", "unitSymbol", "IC50"],
 "data": [
  ["COc1cc2c3c(-c4ccccc4)c[nH]c(=O)c3n(C)c2cc1OC", "Proto-oncogene tyrosine-protein kinase receptor Ret (Homo sapiens)", "nM", 250],
  ["COc1cc2c3c(-c4cccc(O)c4)c[nH]c(=O)c3n(C)c2cc1OC", "Proto-oncogene tyrosine-protein kinase receptor Ret (Homo sapiens)", "nM", 90]
]}

Please find the next compound below.
*Q* Which IC50 is reported for this compound? `COc1cc2[nH]c3c(=O)[nH]cc(-c4ccc(O)cc4)c3c2cc1OC`
*A* 110
